Reference source: PubChem BioAssay (NCI)

- test.protocol: NCI Yeast Anticancer Drug Screen. Data for the mec2-1 strain (AID 157)
- study.conditions: S. cerevisiae mec2-1 strain, at 50.0 µM, active compounds read high
About 79,000 compounds went through this panel and 15% of them were active in at least one assay; those are over-represented in the sample as a whole.
Consider the following compounds; for each one, report its growth inhibition.
Report as a plain number; the unit % is understood.

Problem: Please report the recorded growth inhibition for O=C(Nc1ccc(Cc2ccc(NC(=O)Nc3nc4ccccc4s3)cc2)cc1)Nc1nc2ccccc2s1 .
Result: -17.4

Problem: Now consider CN(C)c1ccc(/C=C/c2nc3ccc([N+](=O)[O-])cc3[nH]2)cc1 .
Result: 3.6

Problem: Now consider O=C(CNc1ccc(Cl)cc1Cl)NC1C=Cc2ccc(S(=O)(=O)Nc3ccc(Cl)cc3Cl)cc2C1=O (stereo unspecified) .
Result: 20.4

Problem: Now consider C[N+](C)(C)c1cc2c(nn1)Nc1ccccc1S2 .
Result: 3.8

Problem: Now consider C#CC(CCC)NCCCC (stereo unspecified) .
Result: -8.95

Problem: Now consider CC(O)CNC(=O)C(C)Oc1ccc(OCC2CCCCC2)cc1 (stereo unspecified) .
Result: -12.9

Problem: Now consider C(CC1CCNCC1)CC1CCNCC1 .
Result: -19.1

Problem: Now consider O=C1CSC(c2ccc(Cl)c(Cl)c2)N1c1nncs1 (stereo unspecified) .
Result: 11.8

Problem: Now consider O=C(O)CNC(=O)OCc1ccccc1 .
Result: -16.4

Problem: Now consider COCCCCCC(=O)OC .
Result: 17.1

Problem: Now consider C=C1C(=O)OC2C1C(OC(=O)/C(C)=C/C)CC(O)(CCl)C1C(O)C=C(C)C21O (stereo unspecified) .
Result: 14.6

Problem: Now consider O=S(=O)(Cc1ccccc1)CC(Br)CBr (stereo unspecified) .
Result: 97.2

Problem: Now consider Cn1c(COC(=O)NC2CCCCC2)c(COC(=O)NC2CCCCC2)c2ccc3cc(C=O)ccc3c21 .
Result: 7.85

Problem: Now consider Clc1ccc2c(c1)C1Oc3ccc(Cl)cc3C(O2)O1 .
Result: -24.5

Problem: Now consider CCC1=CC(C=O)N(C(C)=O)c2ccccc21 (stereo unspecified) .
Result: 7.8

Problem: Now consider O=C(Nc1ccc(Cl)c(Cl)c1)Oc1ccc2ccccc2c1 .
Result: 24.9

Problem: Now consider CC(Nc1cccc(Cl)c1)S(=O)(=O)O (stereo unspecified) .
Result: 5.7

Problem: Now consider Clc1ccc2nc(/C=C/c3ccccc3)cnc2c1 .
Result: 11.2

Problem: Now consider CCC(=O)OCCN(C(=O)CC)c1ccccc1 .
Result: 5.75

Problem: Now consider Cc1ccc(NC(=O)OCCN(C)C)cc1Cl .
Result: -25.8

Problem: Now consider COC(=O)c1ccc(C=O)[nH]1 .
Result: -22.1

Problem: Now consider Cc1cc(N2CCCCC2)nc2ccc(Cc3ccc4nc(N5CCCCC5)cc(C)c4c3)cc12 .
Result: -7.05

Problem: Now consider N#CCCC1C(C#N)C2CC1C1C3C=CC(C3)C21 (stereo unspecified) .
Result: 11.2

Problem: Now consider COC(=O)C(O)(C(=O)OC)C1=C(N)C(=O)c2ccccc2C1=O .
Result: 17.1

Problem: Now consider CCCCCCCCCCCCCCCCCCNC(=O)N1CCC(C)CC1 .
Result: -4.8

Problem: Now consider CC(=O)c1cccc(C(C)=O)n1 .
Result: -36.1

Problem: Now consider CNc1nc(Cl)cc2nc(Cl)cn12 .
Result: 15.8

Problem: Now consider CN(C)CC1CCC(CN(C)C)C(=O)C1=O (stereo unspecified) .
Result: -39.4

Problem: Now consider O=C1OC(C(O)CO)C(C(O)CO)OC1=O (stereo unspecified) .
Result: -15.6

Problem: Now consider O=C1NC(Cc2cccc(I)c2)C(=O)N1c1ccccc1 (stereo unspecified) .
Result: 3.1

Problem: Now consider CCN(CC)CCOC(=O)Nc1cc(C)cc(C)c1 .
Result: -9.15

Problem: Now consider Cn1c(N)cc(=O)nc1N .
Result: 2.05

Problem: Now consider CCCCCCCCCCCCCCCCSS(=O)(=O)O .
Result: 15.7

Problem: Now consider Cc1ccc(Nc2nc(C)c(C(=O)C/C(=N/NC(N)=S)C(=O)Nc3cc(Cl)cc(Cl)c3)s2)cc1 .
Result: -13.1

Problem: Now consider COc1cccc(C2c3cc4c(cc3OC(N3CCCC3)C2C)OCO4)c1O (stereo unspecified) .
Result: -18.6

Problem: Now consider COc1cc(\C=N/N=C/C=C/c2ccccc2)cc(OC)c1OC .
Result: 42.3
